So I've got a bunch of compounds here, and I need their pIC50 values.
assay: Compound was evaluated for its ability to displace [3H]-L-364,718 from Cholecystokinin type A receptor from rat pancreas
Remember, pIC50 is on a log scale: it is -log10 of the molar concentration.

Fill in the blank: the reported pIC50 of Cc1cccc(NC(=O)NC2N=C(c3ccccc3)c3ccccc3N(CC(=O)C(C)C)C2=O)c1 (configuration not stated) is ____.
5.92

Fill in the blank: the reported pIC50 of Cc1cccc(NC(=O)N[C@@H]2N=C(c3ccccc3)c3ccccc3N(CC(=O)C3CCCC3)C2=O)c1 is ____.
6.36

Fill in the blank: the reported pIC50 of Cc1cccc(NC(=O)NC2N=C(c3ccccc3)c3ccccc3N(CC(=O)C3(C)CCCC3)C2=O)c1 (configuration not stated) is ____.
6.53

Fill in the blank: the reported pIC50 of Cc1cccc(NC(=O)NC2N=C(c3ccccc3)c3ccccc3N(CC(=O)CC3CCCCC3)C2=O)c1 (configuration not stated) is ____.
6.32

Fill in the blank: the reported pIC50 of Cc1cccc(NC(=O)N[C@H]2N=C(c3ccccc3)c3ccccc3N(CC(=O)C3CCCC3)C2=O)c1 is ____.
5.60

Fill in the blank: the reported pIC50 of CCC(C)(C)C(=O)CN1C(=O)C(NC(=O)Nc2cccc(C)c2)N=C(c2ccccc2)c2ccccc21 (configuration not stated) is ____.
6.14
